- Tested on: colon cancer cell line SW-620
- test.name: Growth inhibition, sulforhodamine-based protein determination, SW-620
- Type: cell-based
- reported.conditions: Homo sapiens, SW-620, 144 h; continuous exposure six days
result.type: pIC50
Units for pIC50: none; it is -log10 of a concentration expressed in mol/L.

IN: Endpoint output: pIC50 of COc1cc(C2CC(O)c3ccc4ccccc4c3O2)cc(OC)c1OC (stereo not shown) . Value?
OUT: 6.55

---

# pIC50 listing for each entry below
- Test system: MCF-7 (ER+) breast cancer cell line
- test.name: Growth inhibition assay, MTT, MCF-7 breast cancer cells
- Type: cell-based, human
- reported.conditions: Homo sapiens, MCF7, 192 h; MTT assay, eight days; average of at least two experiments; read-out: GROWTH INHIBITION (IC50) MCF-7 (ER+)
Units for pIC50: none; it is -log10 of a concentration expressed in mol/L.

IN: Endpoint output: pIC50 of OC1CC(c2cc(OCc3ccccc3)c(OCc3ccccc3)c(OCc3ccccc3)c2)Oc2c1ccc1ccccc21 (stereo not shown) . Value?
OUT: 4.70

IN: Endpoint output: pIC50 of COc1cc(C2CC(O)c3c(ccc4ccccc34)O2)cc(OC)c1OC (stereo not shown) . Value?
OUT: 5.20
